Overview of recorded Control of weed species, LOLPE (damage score) for various molecules
# Test system: Lolium perenne (LOLPE)
# assay-overview: Post-emergence herbicidal activity
# Type: in vivo
# condition-parameters: post-emergence application, 1000 g/Ha, evaluated after 13 days, scale 0-5; Table 7
Hey, just send me the number, nothing else.

[[record]]
molecule = "Cc1nc(-c2cncc(F)c2)sc1NC(=O)OC(C)(C)C [Compound A35]"
value_measured = 0

[[record]]
molecule = "Cc1nc(-c2cncc(F)c2)sc1N(C)C(=O)OC(C)(C)C [Compound A3]"
value_measured = 3

[[record]]
molecule = "CN(C(=O)OC(C)(C)C)c1sc(-c2cccnc2)nc1C(F)(F)F [Compound A25]"
value_measured = 4

[[record]]
molecule = "CN(C(=O)OC(C)(C)C)c1sc(-c2cncc(F)c2)nc1C(F)(F)F [Compound A24]"
value_measured = 4

[[record]]
molecule = "Cc1nc(-c2cccnc2)sc1N(C)C(=O)Oc1ccc([N+](=O)[O-])cc1 [Compound A61]"
value_measured = 1


Query: Under Lolium perenne (LOLPE): report Control of weed species, LOLPE (damage score) of Cc1nc(-c2cncc(O)c2)sc1N(C)C(=O)OC(C)(C)C [Compound A15] .
Reply: 1
